The origin of these recorded values is ChEMBL document CHEMBL3217446.

target: Cruzipain (Trypanosoma cruzi); assay: Inhibition of Trypanosoma cruzi cruzipain using Z-Phe-Arg-AMC as substrate at 0.3 uM incubated for 5 mins prior to substrate addition measured after 10 mins by fluorescence assay
Output TRUE for inhibition not less than 60%; output FALSE otherwise.

[
  {
    "GIVEN_SMILES": "NC(=[Se])NN=C(c1cccc(Br)c1)c1cccc(Br)c1",
    "LABEL_VALUE": "TRUE"
  },
  {
    "GIVEN_SMILES": "C/C(=N/NC(N)=S)c1cccc(Br)c1",
    "LABEL_VALUE": "FALSE"
  },
  {
    "GIVEN_SMILES": "NC(=[Se])N/N=C/c1cccc(C(F)(F)F)c1",
    "LABEL_VALUE": "FALSE"
  },
  {
    "GIVEN_SMILES": "NC(=[Se])N/N=C/c1cccc(Br)c1",
    "LABEL_VALUE": "FALSE"
  },
  {
    "GIVEN_SMILES": "NC(=[Se])N/N=C/c1ccc(Cl)c(Cl)c1",
    "LABEL_VALUE": "FALSE"
  },
  {
    "GIVEN_SMILES": "C/C(=N\\NC(N)=[Se])c1cccc(Br)c1",
    "LABEL_VALUE": "TRUE"
  },
  {
    "GIVEN_SMILES": "CCCC/C(=N/NC(N)=[Se])c1ccc(Cl)c(Cl)c1",
    "LABEL_VALUE": "TRUE"
  }
]
